test: Clearance in Beagle dog at 1 mg/kg, iv or 2 mg/kg, po using DMSO/10%(w/v) Kleptose, 0.9% saline(aq) (2%/98%); format: ADME, organism-based, Canis lupus familiaris; conditions: in vivo
OBSERVABLE: clearance (mL/min/kg)

smiles_repr=CC(C)Oc1ccc(-c2nc(-c3ccc4c(c3)CCN(CCCC(=O)O)CC4)no2)cc1C#N test_result=3

A: CC(C)Oc1ccc(-c2nc(-c3cccc4c3cnn4CCC(=O)[O-])no2)cc1Cl.[Na+]
B: CC(C)Oc1ccc(-c2nc(-c3cccc4c3OCCN(CCCC(=O)O)C4)no2)cc1Cl
query: // select label with min value of measured clearance from [ A , B ] Lab log: write the label of the selected item as the result.
result: A

* * *

experiment: Oral bioavailability in CD rat at 3 mg/kg using Methylcellulose(aq), 1% (w/v) suspension; type: ADME, organism-based; conditions: CD, in vivo
OBSERVABLE: bioavailability (%)

Examples with their reported bioavailability follow.
compound=CC(C)Oc1ccc(-c2nc(-c3cccc4c3cnn4CCC(=O)[O-])no2)cc1Cl.[Na+] observable=bioavailability test_result=96
compound=CC(C)Oc1ccc(-c2nc(-c3ccc4c(c3)CCN(CCCC(=O)O)CC4)no2)cc1C#N observable=bioavailability test_result=62
compound="CC(C)Oc1ncc(-c2nc(-c3cccc4c3OCCNC4CCCC(=O)O)no2)cc1Cl (stereo in doubt; 31b)" observable=bioavailability test_result=78

I: CC(C)Oc1ccc(-c2nc(-c3cccc4c3CCNC4CC(=O)O)no2)cc1Cl (stereo not given)
II: CC(C)Oc1ccc(-c2nc(-c3cccc4c3OCCN(CCCC(=O)O)C4)no2)cc1Cl
query: Pick one: I or II . Which has the bigger bioavailability number? Lab log: write the label of the selected item as the result.
result: II

* * *

assay: Intrinsic clearance in cynomolgus monkey hepatocyte; format: ADME, cell-based, Macaca fascicularis; details: hepatocytes, read-out: CLH
OBSERVABLE: CLint scaled

query: For the molecule CC(C)Oc1ccc(-c2nc(-c3cccc4c3cnn4CCC(=O)[O-])no2)cc1Cl.[Na+] , give its reported CLint scaled.
result: < 0.9 mL/min/kg

* * *

test: Fraction unbound in rat blood; type: ADME, tissue-based
OBSERVABLE: fraction unbound

compound="CC(C)Oc1ncc(-c2nc(-c3cccc4c3OCCNC4CCCC(=O)O)no2)cc1Cl (stereo in doubt; 31b)" test_result=0.004

P: CC(C)Oc1ccc(-c2nc(-c3cccc4c3OCCN(CCCC(=O)O)C4)no2)cc1Cl
Q: CC(C)Oc1ccc(-c2nc(-c3cccc4c3cnn4CCC(=O)[O-])no2)cc1Cl.[Na+]
query: // select label with min value of measured fraction unbound from [ P , Q ] Lab log: write the label of the selected item as the result.
result: Q
(Q: 0.0017, P: 0.012)

* * *

biological target: Sphingosine 1-phosphate receptor 1 (Homo sapiens); assay: Agonist activity at human S1P1R expressed in RH7777 membranes assessed as [35S]GTPgammaS binding after 30 mins
Sequence (P21453 whole entry): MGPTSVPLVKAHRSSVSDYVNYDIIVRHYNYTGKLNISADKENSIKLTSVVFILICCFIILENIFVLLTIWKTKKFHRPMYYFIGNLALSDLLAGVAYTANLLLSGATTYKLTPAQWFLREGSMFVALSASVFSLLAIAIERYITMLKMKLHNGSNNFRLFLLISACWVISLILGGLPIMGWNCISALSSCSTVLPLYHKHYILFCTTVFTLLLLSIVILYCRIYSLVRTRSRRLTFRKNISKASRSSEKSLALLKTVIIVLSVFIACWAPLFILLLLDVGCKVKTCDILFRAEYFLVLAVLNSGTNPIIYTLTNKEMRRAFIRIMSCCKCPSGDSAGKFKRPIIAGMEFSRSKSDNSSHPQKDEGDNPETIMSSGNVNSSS
pEC50: −log10 of the molar value.
OBSERVABLE: pEC50

compound=CC(C)Oc1ccc(-c2nc(-c3ccc4c(c3)CCNCC4)no2)cc1C#N tested_on="Sphingosine 1-phosphate receptor 1 (Homo sapiens)" observable=pEC50 test_result=7.60

A: CC(C)Oc1ccc(-c2nc(-c3ccc4c(c3)CCN(CCC(=O)O)C4)no2)cc1C#N
B: CC(C)Oc1ccc(-c2nc(-c3cccc4c3CCNC4CC(=O)O)no2)cc1Cl (stereo not given)
C: CC(C)Oc1ccc(-c2nc(-c3cccc4c3CCN(CC(=O)O)CC4)no2)cc1Cl
D: CC(C)Oc1ccc(-c2nc(-c3ccc4c(c3)CNC(CCC(=O)O)CO4)no2)cc1Cl (stereo not given)
query: Ascending by pEC50, please. Provide your answer as the labels ordered per the instruction.
result: C, B, A, D
(C: 5.60, B: 7.70, A: 8.20, D: 8.60)
